# protocol-text: Inhibition of sheep brain tubulin polymerization by fluorescence assay
# Set-up: species or system Ovis aries
assay-metric: IC50
Don't forget the unit after the number, please.

1. CCOC(=O)c1cc(C(=O)c2cc(OC)c(OC)c(OC)c2)n2cccc(C)c12 98.2 µM

Okay, here is my list. What is IC50 for each of these?
1. COC(=O)c1c(C(=O)OC)c2c(C)cc(C)cn2c1C(=O)c1ccc(OC)cc1
2. CCOC(=O)c1c(C(=O)OCC)c2cc(OC)ccn2c1C(=O)c1cc(OC)c(OC)c(OC)c1

1: 81.2 µM; 2: 90.4 µM

====

# Species: Ovis aries
# protocol-text: Inhibition of sheep brain tubulin polymerization at 100 uM by fluorescence assay
assay-metric: inhibition (%)
One number for each entry, in %.

1) COc1ccc(C(=O)c2cc(OC)c(OC)c(OC)c2)cc1O 99
2) COc1ccc(C(=O)c2cc(C#N)c3c(C)cc(C)cn23)cc1 27
3) COC(=O)c1c(C(=O)OC)c2cc(C)ccn2c1C(=O)c1cc(OC)c(OC)c(OC)c1 2
4) COC(=O)c1c(C(=O)OC)c2c(C)cc(C)cn2c1C(=O)c1ccc(OC)cc1 61

Now consider a different compound.
I am curious: what inhibition value has been reported for `CCOC(=O)c1cc(C(=O)c2ccc(OC)c(OC)c2)n2ccc(OC)cc12` ?
51

Values were extracted from ChEMBL document CHEMBL3352214.
